Cited source: PubChem BioAssay (NCI)

# Tested on: CCRF-CEM leukemia
# Assay comment: NCI-60 one-dose screen, 48 h (100 = growth as untreated, 0 = no growth, -100 = all killed)
# Details: 10 µM unless noted
This is part of a sample that, as a whole, favours compounds with a hit. Of some 83,000 tested, about 20% had one in any assay.
Give growth for every item shown.
Numbers only, in %.

State the recorded growth for every item in the following list.
1. COc1ccc(-c2nc3sccn3c2-c2ccnc(NCCCNS(=O)(=O)c3ccc4ccccc4c3)n2)cc1
2. COc1cc(Br)c(OC)cc1Br
3. COc1ccc(S(=O)(=O)N2CCN(c3cc4c(cc3F)c(=O)c(C(=O)O)cn4C3CC3)CC2)c(OC)c1
4. O=C1Nc2ccc(Br)cc2C1=N/C=c1\[nH]c(=O)/c(=C/c2ccc(Cl)cc2)s1
5. Nc1nn2cc(-c3ccc(Cl)s3)nc2c2ccccc12
6. Nc1nc(-c2cc3ccccc3o2)cc(=O)c(=O)[nH]1
7. N#CC1=C(N)n2nc(-c3ccncc3)nc2NC1c1cccc2ccccc12 (stereo not given)

Outgoing:
53.8
116
86.5
87.9
76.8
84.2
87.7

Dear colleague, could you please provide growth for the compounds listed below?
1. O=C(/C=C/CN1CCOCC1)Nc1cc2c(Nc3cccc(Cl)c3F)ncnc2cc1OCCOC(F)F
2. CC(C)N(Cc1ccc(CN(C(=O)CCl)C(C)C)cc1)C(=O)CCl
3. CCNc1nc(N2CC(=O)Nc3cc(OC)ccc32)c2ccccc2n1
4. CCn1cc(C(=O)O)c(=O)c2cc(F)c(N3CCN(S(=O)(=O)c4cccc5ccccc45)CC3)cc21
5. O=C(Cc1c(F)cccc1Cl)Nc1ccc(S(=O)(=O)Nc2ncccn2)cc1

Outgoing:
1: 102; 2: -29.4; 3: 26.8; 4: 12.1; 5: 61.6

* * *

# Tested on: U251 CNS
# Assay comment: NCI-60 one-dose screen, 48 h (100 = growth as untreated, 0 = no growth, -100 = all killed)
# Details: 10 µM unless noted
About 83,000 compounds went through this panel and 20% of them were active in at least one assay; those are over-represented in the sample as a whole.
Exercise: state measured growth for each of the molecules provided.
Numbers only, in %.

// known answers, use as guide
{"Molecule": "Cc1cc(C)c2c(=O)[nH]c(SCC(=O)Nc3cccc(S(=O)(=O)N(C)C)c3)nc2n1", "Measured value": 108}
{"Molecule": "O=C(CCCn1c(=O)c2sc3ccccc3c2n2nnc(-c3ccccc3)c12)NCCc1cnc[nH]1", "Measured value": -51.2}
{"Molecule": "Cc1ccc(Cn2c(-c3cccs3)nc3ccccc32)cc1", "Measured value": 85.5}
{"Molecule": "COc1cccc(/C=C2\\SC(N3CCN(c4ccccn4)CC3)=NC2=O)c1", "Measured value": 105}
{"Molecule": "CCn1cc(C(=O)O)c(=O)c2cc(F)c(N3CCN(S(=O)(=O)c4ccc(Cl)cc4Cl)CC3)cc21", "Measured value": 12.1}

State the recorded growth for every item in the following list.
1. Cc1nc(Nc2cccnc2)sc1C(=O)/C=C/c1ccc(Cl)cc1
2. Nc1nc(-c2cc3ccccc3o2)cc(=O)c(=O)[nH]1
3. Cc1cc2c(C(C)C)c(O)c(O)c(C=NCCCCCCC(=O)O)c2c(O)c1-c1c(C)cc2c(C(C)C)c(O)c(O)c(C=NCCCCCCC(=O)O)c2c1O
4. Cc1cnc(NC(=O)C(Cc2ccccc2)NC(=O)c2ccccc2)s1 (configuration not stated)
5. CC[C@H](C)[C@H]1NC(=O)[C@@H](N[C@](C)(O)[C@@H](N)CC(C)C)[C@@H](C)OC(=O)[C@H](Cc2ccc(OC)cc2)N(C)C(=O)[C@@H]2CCCN2C(=O)[C@H](CC(C)C)NC(=O)[C@@H](C)C(=O)[C@H](C(C)C)OC(=O)C[C@@H]1O
6. CCC(=O)Nc1ccccc1C#C/C=C\C#Cc1ccccc1SC

Outgoing:
3.86
91.9
14.3
92.2
-11.8
48.9

Please look at the items below and tell me growth for each one, in order.
1. CCC(=O)Oc1ccc2c(c1)CC[C@@H]1[C@@H]2CC[C@]2(C)C[C@H](OC(=O)CC)C[C@@H]12
2. Clc1nc(Cl)c2ncn(C/C=C/Cn3cnc4c(Cl)nc(Cl)nc43)c2n1
3. COC1=CC(c2ccc[nH]2)=N/C1=C\c1[nH]c(C)c(C(=O)CCC(=O)Oc2ccc3c(c2)CCC2C3CC[C@]3(C)[C@@H](O)CC[C@@H]23)c1C (some centres not stated)

Outgoing:
1: 48.3; 2: 57.4; 3: -48.4

List growth for every entry below, keeping the order given.
1. C=C1C(=O)O[C@H]2[C@H]1CC/C(COC(=O)NCc1cc(OC)c(OC)c(OC)c1)=C\CC[C@@]1(C)O[C@@H]21
2. O=S(=O)(NCCCNc1cc(-c2cn(-c3ccccc3)nc2-c2cccc(O)c2)ccn1)c1ccc(Cl)cc1
3. O=S(=O)(NCCNc1cc(-c2cn(-c3ccccc3)nc2-c2ccccc2)ccn1)c1cccc2ccccc12

Outgoing:
[81.3, 13.8, 53.3]
